Species on record: Mus musculus
Assay: Biodistribution of [225Ac]-labeled compound in normal mice bone after 4 hr
Type: ADME, organism-based, Bone element
Conditions: in vivo
readout: ID/g (%)

compound	readout	observed
O=C(O)CN1CCN(CC(=O)O)CCN(CC(=O)O)C(Cc2ccc([N+](=O)[O-])cc2)CN(CC(=O)O)CC1 (centres undefined)	ID/g	1.76
O=C(O)CN1CCN(CC(=O)O)CCN(CC(=O)O)CCN(CC(=O)O)CCN(CC(=O)O)CC1	ID/g	1.6

(1) O=C(O)CN1CCN(CC(=O)O)CCN(CC(=O)O)CCN(CC(=O)O)CCN(CC(=O)O)CCN(CC(=O)O)CC1
(2) O=C(O)CN(CC(=O)O)[C@H](Cc1ccc([N+](=O)[O-])cc1)CN(CC(=O)O)[C@@H]1CCCC[C@H]1N(CC(=O)O)CC(=O)O
Hi there! Just curious which has the higher ID/g between 1 and 2 . Identify your selection by its label.
2

---

Organism: Mus musculus
Assay: Biodistribution of [225Ac]-labeled compound in normal mice heart after 1 hr
Type: ADME, organism-based
Conditions: in vivo
readout: ID/g (%)

compound	ID/g [%]
O=C(O)CN1CCN(CC(=O)O)CCN(CC(=O)O)CCN(CC(=O)O)CCN(CC(=O)O)CC1	2.65

(1) O=C(O)CN(CC(=O)O)[C@H](Cc1ccc([N+](=O)[O-])cc1)CN(CC(=O)O)[C@@H]1CCCC[C@H]1N(CC(=O)O)CC(=O)O
(2) O=C(O)CN1CCN(CC(=O)O)CCN(CC(=O)O)CCN(CC(=O)O)CCN(CC(=O)O)CCN(CC(=O)O)CC1
(3) O=C(O)CN1CCN(CC(=O)O)CCN(CC(=O)O)C(Cc2ccc([N+](=O)[O-])cc2)CN(CC(=O)O)CC1 (centres undefined)
Rank by ID/g (largest to smallest). Quick reminder: the answer is the labels in the order asked.
1, 3, 2

---

Species on record: Mus musculus
Assay: Biodistribution of [225Ac]-labeled compound in normal mice kidney after 24 hr
Format: ADME, organism-based
Conditions: in vivo
readout: ID/g (%)

Please review the following examples before continuing.
molecule	ID/g, %
O=C(O)CN1CCN(CC(=O)O)CCN(CC(=O)O)CCN(CC(=O)O)CCN(CC(=O)O)CC1	1.64
O=C(O)CN1CCN(CC(=O)O)CCN(CC(=O)O)C(Cc2ccc([N+](=O)[O-])cc2)CN(CC(=O)O)CC1 (centres undefined)	0.48

(1) O=C(O)CN1CCN(CC(=O)O)CCN(CC(=O)O)CCN(CC(=O)O)CCN(CC(=O)O)CCN(CC(=O)O)CC1
(2) O=C(O)CN(CC(=O)O)[C@H](Cc1ccc([N+](=O)[O-])cc1)CN(CC(=O)O)[C@@H]1CCCC[C@H]1N(CC(=O)O)CC(=O)O
Which of these two has the smaller recorded ID/g: 1 or 2 ? Reply with the label of the item you choose.
1

---

Species on record: Mus musculus
Assay: Biodistribution of [225Ac]-labeled compound in normal mice spleen after 1 hr
Type: ADME, organism-based
Conditions: in vivo
readout: ID/g (%)

Sample answers from the record:
compound	observed
O=C(O)CN1CCN(CC(=O)O)CCN(CC(=O)O)C(Cc2ccc([N+](=O)[O-])cc2)CN(CC(=O)O)CC1 (centres undefined)	0.06
O=C(O)CN(CC(=O)O)[C@H](Cc1ccc([N+](=O)[O-])cc1)CN(CC(=O)O)[C@@H]1CCCC[C@H]1N(CC(=O)O)CC(=O)O	0.71

(I) O=C(O)CN1CCN(CC(=O)O)CCN(CC(=O)O)CCN(CC(=O)O)CCN(CC(=O)O)CCN(CC(=O)O)CC1
(II) O=C(O)CN1CCN(CC(=O)O)CCN(CC(=O)O)CCN(CC(=O)O)CCN(CC(=O)O)CC1
Pick one: I or II . Which has the bigger ID/g number? Respond with the label that goes with your answer.
II
(II: 0.83%, I: 0.05%)
